- Tested on: Sodium/potassium-transporting ATPase
- Protocol details: Displacement of [3H]ouabain from dog kidney Na+/K+ ATPase
- Format: protein-complex assay, Canis lupus familiaris
Attribute: -Log IC50
Measured endpoint: -Log IC50

> print(dat)
                                 mol.smiles                             tested.on  quantitative.readout
1  CN1CCN=C1N/N=C/[C@H]1CC[C@]2(O)[C@@H]3CC[C@@H]4C[C@@H](O)CC[C@]4(C)[C@H]3CC[C@]12C  Sodium/potassium-transporting ATPase                     6
2  C/N=C(\C[N+](=O)[O-])N/N=C/[C@H]1CC[C@]2(O)[C@@H]3CC[C@@H]4C[C@@H](O)CC[C@]4(C)[C@H]3CC[C@]12C  Sodium/potassium-transporting ATPase                   4.5
3  C[C@]12CC[C@H](O)C[C@H]1CC[C@@H]1[C@@H]2CC[C@]2(C)[C@@H](/C=N/N=C(\N)Nc3ccccc3)CC[C@]12O  Sodium/potassium-transporting ATPase                   5.2

###

- Tested on: Sodium/potassium-transporting ATPase
- Protocol details: Displacement of [3H]ouabain from dog kidney Na+/K+ ATPase
- Assay type: protein-complex assay, Canis lupus familiaris
Attribute: -Log IC50
Measured endpoint: -Log IC50

> print(dat)
                                 mol.smiles                             tested.on  quantitative.readout
1  CSC(=N)N/N=C/[C@H]1CC[C@]2(O)[C@@H]3CC[C@@H]4C[C@@H](O)CC[C@]4(C)[C@H]3CC[C@]12C  Sodium/potassium-transporting ATPase                   5.7
2  C[C@]12CC[C@H](O)C[C@H]1CC[C@@H]1[C@@H]2CC[C@]2(C)[C@@H](/C=N/NC3=NCCN3)CC[C@]12O  Sodium/potassium-transporting ATPase                   6.7
3  C[C@]12CC[C@H](O)C[C@H]1CC[C@@H]1[C@@H]2CC[C@]2(C)[C@@H](/C=N/Nc3ccccn3)CC[C@]12O  Sodium/potassium-transporting ATPase                   5.7
4  C[C@]12CC[C@H](O)C[C@H]1CC[C@@H]1[C@@H]2CC[C@]2(C)[C@@H](/C=N/NC(N)=O)CC[C@]12O  Sodium/potassium-transporting ATPase                   5.1
5  C[C@]12CC[C@H](O)C[C@H]1CC[C@@H]1[C@@H]2CC[C@]2(C)[C@@H](/C=N/NC3=NC(=O)CN3)CC[C@]12O  Sodium/potassium-transporting ATPase                   4.7
6  C/C(=N\N=C(N)N)[C@H]1CC[C@]2(O)[C@@H]3CC[C@@H]4C[C@@H](O)CC[C@]4(C)[C@H]3CC[C@]12C  Sodium/potassium-transporting ATPase                   6.7

###

Attribute: -Log IC50
- Tested on: Sodium/potassium-transporting ATPase
- Protocol details: Displacement of [3H]ouabain from dog kidney Na+/K+ ATPase
- Assay type: protein-complex assay, Canis lupus familiaris
Measured endpoint: -Log IC50

> print(dat)
                                 mol.smiles                             tested.on  quantitative.readout
1  C[C@]12CC[C@H](O)C[C@H]1CC[C@@H]1[C@@H]2CC[C@]2(C)[C@@H](/C=N/NC3=NCCCN3)CC[C@]12O  Sodium/potassium-transporting ATPase                   6.6
2  C[C@]12CC[C@H](O)C[C@H]1CC[C@@H]1[C@@H]2CC[C@]2(C)[C@@H](/C=N/N=C(N)N)CC[C@]12O.Cl  Sodium/potassium-transporting ATPase                     7
3  C[C@]12CC[C@H](O)C[C@H]1CC[C@@H]1[C@@H]2CC[C@]2(C)[C@@H](/C=N/N=C(\N)S)CC[C@]12O  Sodium/potassium-transporting ATPase                   4.7
4  C[C@]12CC[C@H](O)C[C@H]1CC[C@@H]1[C@@H]2CC[C@]2(C)[C@@H](/C=N/Nc3ncccn3)CC[C@]12O  Sodium/potassium-transporting ATPase                   4.6

###

- Protocol details: Acid dissociation constant was determined
- Format: ADME
Measured endpoint: pKa

> print(dat)
                                 mol.smiles  quantitative.readout
1  C[C@]12CC[C@H](O)C[C@H]1CC[C@@H]1[C@@H]2CC[C@]2(C)[C@@H](/C=N/NC3=NCCN3)CC[C@]12O                  8.42
2  C[C@]12CC[C@H](O)C[C@H]1CC[C@@H]1[C@@H]2CC[C@]2(C)[C@@H](/C=N/NC3=NCCCN3)CC[C@]12O                  10.4
3  C[C@]12CC[C@H](O)C[C@H]1CC[C@@H]1[C@@H]2CC[C@]2(C)[C@@H](/C=N/N=C(N)N)CC[C@]12O.Cl                  9.35
4  C[C@]12CC[C@H](O)C[C@H]1CC[C@@H]1[C@@H]2CC[C@]2(C)[C@@H](/C=N/NC3=NC(=O)CN3)CC[C@]12O                  3.58
5  C[C@]12CC[C@H](O)C[C@H]1CC[C@@H]1[C@@H]2CC[C@]2(C)[C@@H](/C=N/NC(N)=O)CC[C@]12O                  1.78
6  C/N=C(\C[N+](=O)[O-])N/N=C/[C@H]1CC[C@]2(O)[C@@H]3CC[C@@H]4C[C@@H](O)CC[C@]4(C)[C@H]3CC[C@]12C                  2.37

###

Attribute: pKa
- Protocol details: Acid dissociation constant was determined
- Format: ADME
Measured endpoint: pKa

> print(dat)
                                 mol.smiles  measured.endpoint  quantitative.readout
1  CSC(=N)N/N=C/[C@H]1CC[C@]2(O)[C@@H]3CC[C@@H]4C[C@@H](O)CC[C@]4(C)[C@H]3CC[C@]12C                pKa                  5.76
2  C[C@]12CC[C@H](O)C[C@H]1CC[C@@H]1[C@@H]2CC[C@]2(C)[C@@H](/C=N/Nc3ncccn3)CC[C@]12O                pKa                  3.44
3  CN1CCN=C1N/N=C/[C@H]1CC[C@]2(O)[C@@H]3CC[C@@H]4C[C@@H](O)CC[C@]4(C)[C@H]3CC[C@]12C                pKa                  8.05
4  C/C(=N\N=C(N)N)[C@H]1CC[C@]2(O)[C@@H]3CC[C@@H]4C[C@@H](O)CC[C@]4(C)[C@H]3CC[C@]12C                pKa                  9.49
5  C[C@]12CC[C@H](O)C[C@H]1CC[C@@H]1[C@@H]2CC[C@]2(C)[C@@H](/C=N/Nc3ccccn3)CC[C@]12O                pKa                  6.34
6  C[C@]12CC[C@H](O)C[C@H]1CC[C@@H]1[C@@H]2CC[C@]2(C)[C@@H](/C=N/N=C(\N)Nc3ccccc3)CC[C@]12O                pKa                  8.62
7  C[C@]12CC[C@H](O)C[C@H]1CC[C@@H]1[C@@H]2CC[C@]2(C)[C@@H](/C=N/N=C(\N)S)CC[C@]12O                pKa                  0.86

The origin of these recorded values is ChEMBL document CHEMBL1129615.
